Measured melting point of individual entries

{"mol": "CCc1ccc(NC(=O)Nc2ccc(Oc3ccncc3)cc2)cc1", "melting point": "166.5 to 168 °C"}

Q. Data request, read-out melting point, for CCN1CCN(Cc2cc(NC(=O)Nc3ccc(Oc4cc(Cl)ncn4)cc3)cc(C(F)(F)F)c2)CC1
A. 168 to 169 °C

Q. // returns reported melting point for input COc1cc(NC(=O)Nc2ccc(Oc3ccncc3)cc2)cc(C(F)(F)F)c1
A. 162.5 to 164.5 °C

Q. # query: melting point of entry O=C(Nc1ccc(Oc2cc(Nc3ccc(O)cc3)ncn2)cc1)Nc1cccc(C(F)(F)F)c1
A. 142 °C (dec.)

Q. Any idea what melting point was measured for Cc1ccc(NC(=O)Nc2ccc(Oc3cc(Cl)ncn3)cc2)cc1 ?
A. 217 to 219 °C

Q. Record request: melting point value, item O=C(Nc1cccc(C(F)(F)F)c1)N1CCc2cc(Oc3ccncc3)ccc21
A. 171 to 172.5 °C

Q. What value of measured melting point is listed for CNc1cc(Oc2ccc(NC(=O)Nc3ccc(C)c(C(F)(F)F)c3)cc2)ncn1 ?
A. 202 to 203 °C (dec.)

Q. Item under review: CN(C)Cc1cc(NC(=O)Nc2ccc(Oc3cc(Cl)ncn3)cc2)cc(C(F)(F)F)c1 . Reported melting point?
A. 154 °C

Q. What does the record list as melting point for Cc1ccc(NC(=O)Nc2ccc(Oc3cc(Cl)ncn3)cc2)cc1C(F)(F)F ?
A. 183 to 184.5 °C

----------
Measured Flt3 (% at 10 μM), listed per entry.
# systemTested: cytoplasmic kinase domain of human Flt-3 (Homo sapiens, UniProt P36888)
# Construct: amino acids 563-993 of the cytoplasmic kinase domain of human Flt-3; made in house; host or cells: Sf9 insect cells (baculovirus, donor vector pFbacG01)
# Sequence (P36888 563-993): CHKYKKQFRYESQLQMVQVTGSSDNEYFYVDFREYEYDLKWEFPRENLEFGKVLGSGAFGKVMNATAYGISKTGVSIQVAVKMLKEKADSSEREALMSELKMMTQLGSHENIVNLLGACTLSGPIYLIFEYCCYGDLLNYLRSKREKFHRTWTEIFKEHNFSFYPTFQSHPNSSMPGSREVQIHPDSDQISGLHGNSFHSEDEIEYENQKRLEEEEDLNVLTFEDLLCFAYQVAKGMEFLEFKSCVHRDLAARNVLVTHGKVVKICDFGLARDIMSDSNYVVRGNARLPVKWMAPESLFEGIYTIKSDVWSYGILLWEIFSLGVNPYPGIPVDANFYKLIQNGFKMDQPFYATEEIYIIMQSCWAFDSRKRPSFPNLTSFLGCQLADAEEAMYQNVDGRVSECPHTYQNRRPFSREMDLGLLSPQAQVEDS
# assaySummary: Flt3 kinase inhibition, GST-Flt-3 filter binding assay
# Format: biochemical
# conditionNotes: % inhibition at 10 μM

Q. Query: Flt3 (% at 10 μM); subject: O=C(Nc1ccc(Cc2ccncc2)cc1)Nc1cccc(C(F)(F)F)c1
A. 96%

Q. // query Flt3 (% at 10 μM) value for entry Cc1ccc(NC(=O)Cc2ccc(Oc3ccncc3)cc2)cc1
A. 92%

Q. Please look up its Flt3 (% at 10 μM): CCCc1ccc(NC(=O)N(C)c2ccc(Oc3ccncc3)cc2)cc1
A. 67%

Q. Can you look up the measured Flt3 (% at 10 μM) of Cc1cc(Oc2ccc(NC(=O)Nc3cccc(C(F)(F)F)c3)cc2)ccn1 for me?
A. 100%

Q. So what's the measured Flt3 (% at 10 μM) for this one? Cc1ccc(NC(=O)N(C)c2ccc(Oc3ccncc3)cc2)cc1
A. 57%

----------
# systemTested: c-Abl kinase (His-tagged kinase domain of c-Abl) (Homo sapiens)
# Construct: The His-tagged kinase domain of c-Abl is cloned and expressed in the baculovirus/Sf9 system; His tag; made in house; host or cells: Sf9 insect cells (baculovirus)
# assaySummary: c-Abl protein-tyrosine kinase in vitro enzyme filter binding assay
# Assay type: biochemical
# conditionNotes: % inhibition at 10 μM
Entries and their measured c-Abl (% at 10 μM) follow.
The reply should be a number in %, with the unit left off.

{"mol": "CCCc1ccc(NC(=O)Nc2ccc(Oc3ccncc3)cc2)cc1", "c-Abl (% at 10 μM) / %": 58}
{"mol": "O=C(Nc1cccc(C(F)(F)F)c1)N1CCc2cc(Oc3ccncc3)ccc21", "c-Abl (% at 10 μM) / %": 92}

Q. Please give the measured c-Abl (% at 10 μM) for this molecule: CCc1ccc(NC(=O)N(C)c2ccc(Oc3ccncc3)cc2)cc1
A. 46

Q. Which c-Abl (% at 10 μM) reading was recorded for the molecule O=C(Nc1ccc(Oc2ccncc2)cc1)Nc1cccc(C(F)(F)F)c1 ?
A. 84

Q. Value lookup for c-Abl (% at 10 μM); key = CCCc1ccc(NC(=O)N(C)c2ccc(Oc3ccncc3)cc2)cc1
A. 47

Q. Which c-Abl (% at 10 μM) value belongs to CCc1ccc(NC(=O)Nc2ccc(Cc3ccncc3)cc2)cc1 ?
A. 36

Q. Which c-Abl (% at 10 μM) value is on record for Cc1ccc(NC(=O)N(C)c2ccc(Oc3ccncc3)cc2)cc1 ?
A. 48

Q. For O=C(Nc1ccc(Cc2ccncc2)cc1)Nc1cccc(C(F)(F)F)c1 , what is its reported c-Abl (% at 10 μM)?
A. 71

Q. Reported c-Abl (% at 10 μM), molecule CCCc1ccc(NC(=O)Cc2ccc(Oc3ccncc3)cc2)cc1 : ____
A. 61

----------
Reported melting point values for the following molecules.

Previously resolved entries follow.
{"molecule": "O=C(Nc1cccc(C(F)(F)F)c1)N1CCCc2cc(Oc3ccncc3)ccc21 [Example 20]", "attributeMeasured": "melting point", "result": "185.5 to 188 °C"}
{"molecule": "Cc1ccc(NC(=O)Nc2ccc(Oc3ccncc3)cc2)cc1C(F)(F)F [Example 43]", "attributeMeasured": "melting point", "result": "149 °C (dec.)"}
{"molecule": "CCN(CC)c1ccc(NC(=O)Nc2ccc(Oc3ccncc3)cc2)cc1C(F)(F)F [Example 39]", "attributeMeasured": "melting point", "result": "60 °C (dec.)"}
{"molecule": "CCc1cc(Oc2ccc(NC(=O)Nc3ccc(C)cc3)cc2)ncn1 [Example 99]", "attributeMeasured": "melting point", "result": "160 to 162 °C"}
{"molecule": "O=C(Nc1cccc(C(F)(F)F)c1)N1CCc2cc(Oc3cc(Cl)ncn3)ccc21 [Example 163]", "attributeMeasured": "melting point", "result": "181 °C"}

Q. Fill in: melting point of O=C(Nc1ccc(Oc2cc(Cl)ncn2)cc1)Nc1cccc(C(F)(F)F)c1 [Example 21] is ___
A. 187.4 to 189.7 °C

----------
Entries annotated with measured Flt3 (% at 10 μM)
# systemTested: cytoplasmic kinase domain of human Flt-3 (Homo sapiens)
# Construct: amino acids 563-993 of the cytoplasmic kinase domain of human Flt-3; made in house; host or cells: Sf9 insect cells (baculovirus, donor vector pFbacG01)
# assaySummary: Flt3 kinase inhibition, GST-Flt-3 filter binding assay
# Type: biochemical
# conditionNotes: % inhibition at 10 μM
Report only the number, with the unit % understood.

// below: answered compounds
{"compound": "O=C(Nc1ccc(Oc2ccncc2)cc1)Nc1ccc(OCC(F)(F)F)c(C(F)(F)F)c1 [Example 10]", "Flt3 (% at 10 μM) [%]": 100}
{"compound": "CCc1ccc(NC(=O)Nc2ccc(Cc3ccncc3)cc2)cc1 [Example 13]", "Flt3 (% at 10 μM) [%]": 95}
{"compound": "CCc1ccc(NC(=O)N(C)c2ccc(Oc3ccncc3)cc2)cc1 [Example 5]", "Flt3 (% at 10 μM) [%]": 64}

Q. Entry O=C(Nc1ccc(Oc2cc(Nc3ccc(O)cc3)ncn2)cc1)Nc1ccc(OCC(F)(F)F)c(C(F)(F)F)c1 [Example 32] : reported Flt3 (% at 10 μM) = ?
A. 100

----------
# systemTested: c-Abl kinase (His-tagged kinase domain of c-Abl) (Homo sapiens, UniProt P00519)
# Construct: The His-tagged kinase domain of c-Abl is cloned and expressed in the baculovirus/Sf9 system; His tag; made in house; host or cells: Sf9 insect cells (baculovirus)
# Sequence (P00519 242-493 limits assumed): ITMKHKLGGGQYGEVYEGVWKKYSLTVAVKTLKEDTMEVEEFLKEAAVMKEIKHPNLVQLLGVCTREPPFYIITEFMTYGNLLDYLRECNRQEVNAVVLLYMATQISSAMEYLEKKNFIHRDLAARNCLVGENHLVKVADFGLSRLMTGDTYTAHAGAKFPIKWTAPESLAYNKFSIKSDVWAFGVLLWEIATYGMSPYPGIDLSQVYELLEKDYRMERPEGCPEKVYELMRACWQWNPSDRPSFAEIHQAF
# assaySummary: c-Abl protein-tyrosine kinase in vitro enzyme filter binding assay
# Format: biochemical
# conditionNotes: % inhibition at 10 μM
attributeMeasured: c-Abl (% at 10 μM) (%)
Write the value in % as a bare number.

Known results for compounds:
{"mol": "CN(C(=O)Nc1cccc(C(F)(F)F)c1)c1ccc(Oc2ccncc2)cc1", "systemTested": "c-Abl kinase (His-tagged kinase domain of c-Abl) (Homo sapiens, UniProt P00519)", "numericValue": 75}
{"mol": "O=C(Nc1ccc(Oc2cc(Nc3ccc(O)cc3)ncn2)cc1)Nc1ccc(OCC(F)(F)F)c(C(F)(F)F)c1", "systemTested": "c-Abl kinase (His-tagged kinase domain of c-Abl) (Homo sapiens, UniProt P00519)", "numericValue": 98}
{"mol": "Cc1ccc(NC(=O)Cc2ccc(Oc3ccncc3)cc2)cc1", "systemTested": "c-Abl kinase (His-tagged kinase domain of c-Abl) (Homo sapiens, UniProt P00519)", "numericValue": 18}
{"mol": "Cc1ccc(NC(=O)Nc2ccc(Oc3ccncc3)cc2)cc1", "systemTested": "c-Abl kinase (His-tagged kinase domain of c-Abl) (Homo sapiens, UniProt P00519)", "numericValue": 59}

Now turn to the next compound.
Q. # get_value(readout= c-Abl (% at 10 μM), system= c-Abl kinase (His-tagged kinase domain of c-Abl) (Homo sapiens, UniProt P00519)) for O=C(Nc1ccc(Oc2ccncc2)cc1)Nc1ccc(Br)c(C(F)(F)F)c1
A. 100
